Cited source for all entries: PubChem BioAssay (NCI)

System: NCI/ADR-RES ovarian
Assay: NCI tumour cell line growth inhibition, 48 h
reported-metric: GI50

These recorded examples may help you get a feel for the data.
>>> endpoint_value("Cn1ncc2c(Sc3ccc(Cl)cc3)ncnc21")
"21.7 µM"
>>> endpoint_value("COc1ccc(C2CC(c3cc(Cl)c(C)cc3O)=NN2c2ccc(S(N)(=O)=O)cc2)cc1OC (stereo unspecified)")
"3.39 µM"
>>> endpoint_value("O=S1CCN(Cc2ccc(-c3ccc4ncnc(Nc5ccc(OCc6ccccc6)c(Cl)c5)c4c3)o2)CC1")
"8.08 µM"
>>> endpoint_value("NS(=O)(=O)N(c1cc(C(F)(F)F)cc(C(F)(F)F)c1)C1CCN(Cc2ccc(F)cc2)CC1")
"6.72 µM"
>>> endpoint_value("COC1=CC(c2ccc[nH]2)=N/C1=C\\c1[nH]c(C)c(C(=O)CCCCC(=O)NCc2ccccc2)c1C")
"2.17 µM"

Next item in the queue.
Input: Kindly state the measured GI50 obtained for `COCC(=O)Oc1cc(-c2ccc(C)cc2C)c(OC(=O)COC)c(-c2ccc(C)cc2C)c1` with NCI/ADR-RES ovarian.
Output: 5.84 µM
